B1: CFHR2 (parent)
chain: FVENGHSESSGQTHLEGDTVQIIC

Variants of: B1
assay.summary: protein stability index of a GFP-peptide fusion (GPS, HEK-293T) (PSI 1-6); higher = more stable;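 note: lentivirally expressed fusions sorted by FACS into six bins by GFP to DsRed ratio, PSI derived from sequencing read proportions per bin multiplied by bin number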
stated.conditions: c terminus: a fixed tail appended
experimental.readout: protein stability index
Please state the value as a number alone, without comment.

Per the record, FVENGHSESSGQTHLEGDQVQIIC [T19Q] has protein stability index of 3.19

Recorded protein stability index (variant FVENGHSESSGQTHLEGRTVQIIC [D18R] ): 2.07

Given item FVENGHSESSGQTHLEGFTVQIIC [D18F] , the value recorded as its protein stability index is 2.33

Data point: FVENGHSESSGQTHLEGDTVQIEC [I23E] ; protein stability index = 4.13

Lab note: measured protein stability index of FVENGHSESSGQTHFEGDTVQIIC [L15F] was 2.2

protein stability index recorded for this variant, FVENGHSESSGQTHLEGDTVQWIC [I22W] , is 1.67

Reported protein stability index of FVENGHSESSGQTHLKGDTVQIIC [E16K] : 2.19

Please fill in: protein stability index reported for FVENGHSESSKQTHLEGDTVQIIC [G11K] = 2.39

So, FVENGHSESSGQTHLEGDTVPIIC [Q21P] ? Its protein stability index was 3.04

Form: variant = FVANGHSESSGQTHLEGDTVQIIC [E3A] ; protein stability index = 2.11

variant FSENGHSESSGQTHLEGDTVQIIC [V2S] , protein stability index observed: 4.18

Lookup result for FVENGHSESSGQTHLEMDTVQIIC [G17M] ; measured protein stability index: 2.29

Item: FVENGHSEGSGQTHLEGDTVQIIC [S9G] | protein stability index: 2.7

protein stability index recorded for this variant, FVENGHSESSGQTGLEGDTVQIIC [H14G] , is 2.47
